For each record, write down the corresponding pEC50.
Biological target: T1, human CD200R1 expressed on cells (Jurkat-CD200R1, U937-CD200R1, HH cells) (human, UniProt Q8TD46 25-348)
T1 construct: whole, on cells; also called HH (CRL-2105); cell surface-expressed CD200R1
T1 sequence (looked up): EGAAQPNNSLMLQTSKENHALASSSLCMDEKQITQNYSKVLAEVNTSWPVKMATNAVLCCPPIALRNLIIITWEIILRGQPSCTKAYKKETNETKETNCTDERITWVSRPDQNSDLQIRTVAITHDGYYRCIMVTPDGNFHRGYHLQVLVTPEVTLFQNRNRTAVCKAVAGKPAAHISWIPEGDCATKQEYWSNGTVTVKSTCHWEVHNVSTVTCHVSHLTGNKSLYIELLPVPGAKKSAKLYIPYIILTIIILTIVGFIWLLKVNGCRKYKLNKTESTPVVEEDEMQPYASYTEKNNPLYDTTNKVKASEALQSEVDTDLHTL
Experiment: flow cytometry, HH cells; drawn table, row EC50
pEC50 here is simply -log10 of the concentration when that concentration is written in mol/L.

(Q) Need pEC50, item P001018 scFv mutant H3-Y102T (scFv) scFv: QVQLVQSGAEVKKPGASVKVSCKASGYTFTSYVMHWVRQAPGQGLEWMGYINPYNDDTNYNEKFKGRVTMTRDTSTSTVYMELSSLRSEDTAVYYCAREDYYGSRWGTWGQGTLVTVSSGGGGSGGGGSGGGGSDIVLTQSPASLAVSPGQRATITCRASKSVSTSGYSYMHWYQQKPGQPPKLLIYLASNLESGVPARFSGSGSGTDFTLTINPVEANDTANYYCQHSRELLTFGQGTKVEIK
(A) 8.03

(Q) # input binder: P001018 scFv mutant L3-T96R (scFv) scFv: QVQLVQSGAEVKKPGASVKVSCKASGYTFTSYVMHWVRQAPGQGLEWMGYINPYNDDTNYNEKFKGRVTMTRDTSTSTVYMELSSLRSEDTAVYYCAREDYYGSRWGYWGQGTLVTVSSGGGGSGGGGSGGGGSDIVLTQSPASLAVSPGQRATITCRASKSVSTSGYSYMHWYQQKPGQPPKLLIYLASNLESGVPARFSGSGSGTDFTLTINPVEANDTANYYCQHSRELLRFGQGTKVEIK ; wanted: its pEC50
(A) 8.14

(Q) Would you mind telling me what pEC50 value was observed for P001018 scFv mutant H3-Y102K (scFv) scFv: QVQLVQSGAEVKKPGASVKVSCKASGYTFTSYVMHWVRQAPGQGLEWMGYINPYNDDTNYNEKFKGRVTMTRDTSTSTVYMELSSLRSEDTAVYYCAREDYYGSRWGKWGQGTLVTVSSGGGGSGGGGSGGGGSDIVLTQSPASLAVSPGQRATITCRASKSVSTSGYSYMHWYQQKPGQPPKLLIYLASNLESGVPARFSGSGSGTDFTLTINPVEANDTANYYCQHSRELLTFGQGTKVEIK ?
(A) 8.01

(Q) Return reported pEC50; argument: P001018 (huOX108.1) (antibody, V domains shown, also called humanized antibody P001018) VH: QVQLVQSGAEVKKPGASVKVSCKASGYTFTSYVMHWVRQAPGQGLEWMGYINPYNDDTNYNEKFKGRVTMTRDTSTSTVYMELSSLRSEDTAVYYCAREDYYGSRWGYWGQGTLVTVSS VL: DIVLTQSPASLAVSPGQRATITCRASKSVSTSGYSYMHWYQQKPGQPPKLLIYLASNLESGVPARFSGSGSGTDFTLTINPVEANDTANYYCQHSRELLTFGQGTKVEIK
(A) 8.18

(Q) For P001018 scFv mutant L3-L94H (scFv) scFv: QVQLVQSGAEVKKPGASVKVSCKASGYTFTSYVMHWVRQAPGQGLEWMGYINPYNDDTNYNEKFKGRVTMTRDTSTSTVYMELSSLRSEDTAVYYCAREDYYGSRWGYWGQGTLVTVSSGGGGSGGGGSGGGGSDIVLTQSPASLAVSPGQRATITCRASKSVSTSGYSYMHWYQQKPGQPPKLLIYLASNLESGVPARFSGSGSGTDFTLTINPVEANDTANYYCQHSREHLTFGQGTKVEIK , what is its reported pEC50?
(A) 8.03

(Q) # pEC50 lookup, item P001018 scFv mutant L3-L95D (scFv) scFv: QVQLVQSGAEVKKPGASVKVSCKASGYTFTSYVMHWVRQAPGQGLEWMGYINPYNDDTNYNEKFKGRVTMTRDTSTSTVYMELSSLRSEDTAVYYCAREDYYGSRWGYWGQGTLVTVSSGGGGSGGGGSGGGGSDIVLTQSPASLAVSPGQRATITCRASKSVSTSGYSYMHWYQQKPGQPPKLLIYLASNLESGVPARFSGSGSGTDFTLTINPVEANDTANYYCQHSRELDTFGQGTKVEIK
(A) 7.88
